These measurements were taken from patent US11981658B2.

- study.target: EGFR wildtype (WT) (Homo sapiens)
- Sequence (P00533 25-1210): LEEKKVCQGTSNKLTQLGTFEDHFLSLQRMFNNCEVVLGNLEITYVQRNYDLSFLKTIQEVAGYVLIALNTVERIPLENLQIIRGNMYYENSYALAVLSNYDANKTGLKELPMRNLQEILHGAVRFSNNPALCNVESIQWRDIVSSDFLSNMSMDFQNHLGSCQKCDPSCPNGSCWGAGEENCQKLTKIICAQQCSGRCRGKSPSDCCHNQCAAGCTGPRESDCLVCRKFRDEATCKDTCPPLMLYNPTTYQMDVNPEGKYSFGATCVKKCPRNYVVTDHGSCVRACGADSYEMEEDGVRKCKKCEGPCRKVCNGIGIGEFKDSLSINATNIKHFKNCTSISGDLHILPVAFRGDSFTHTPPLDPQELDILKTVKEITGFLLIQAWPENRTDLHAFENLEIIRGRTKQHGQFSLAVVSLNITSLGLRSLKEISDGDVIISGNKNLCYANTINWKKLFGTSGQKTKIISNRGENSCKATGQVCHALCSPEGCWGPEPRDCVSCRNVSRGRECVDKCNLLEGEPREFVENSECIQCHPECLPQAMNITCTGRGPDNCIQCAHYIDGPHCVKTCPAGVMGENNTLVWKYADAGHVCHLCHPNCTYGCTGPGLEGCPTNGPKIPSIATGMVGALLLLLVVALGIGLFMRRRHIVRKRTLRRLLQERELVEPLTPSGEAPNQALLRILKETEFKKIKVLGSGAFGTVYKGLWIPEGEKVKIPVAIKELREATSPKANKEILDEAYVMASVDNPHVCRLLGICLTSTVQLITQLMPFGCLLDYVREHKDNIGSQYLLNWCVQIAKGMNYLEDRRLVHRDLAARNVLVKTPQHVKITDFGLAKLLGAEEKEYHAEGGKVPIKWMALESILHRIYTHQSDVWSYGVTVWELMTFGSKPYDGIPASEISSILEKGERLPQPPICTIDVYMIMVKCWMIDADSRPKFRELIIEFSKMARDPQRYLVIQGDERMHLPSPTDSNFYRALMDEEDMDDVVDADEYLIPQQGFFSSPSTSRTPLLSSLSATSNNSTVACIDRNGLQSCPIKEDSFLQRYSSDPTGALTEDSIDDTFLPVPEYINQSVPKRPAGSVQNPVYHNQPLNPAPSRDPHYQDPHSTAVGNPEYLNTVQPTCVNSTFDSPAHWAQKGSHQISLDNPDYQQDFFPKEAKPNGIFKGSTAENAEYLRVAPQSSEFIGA
- protocol.details: Biochemical EGFR kinase inhibition assay (Lance Ultra TR-FRET), wildtype
- condition: Km ATP; read-out: IC50 WT (nM) Km ATP

compound: CCC(C)Oc1cc(Nc2ccnc(-c3cnn(S(=O)(=O)C4CC4)c3)n2)ncc1C#Cc1cnn(C)c1 (centres unmarked)
readout.qualifier: >
IC50, nM: 10000
//
compound: O=S(=O)(C1CC1)n1cc(-c2nccc(Nc3cc(N4CCC(F)CC4)c(C#Cc4cnn(C5CCOCC5)c4)cn3)n2)cn1
readout.qualifier: =
IC50, nM: 86.5
//
compound: CCC(C)Nc1cc(Nc2ccnc(-c3cnn(S(=O)(=O)C4CC4)c3)n2)ncc1C#Cc1cnn(CCF)c1 (centres unmarked)
readout.qualifier: =
IC50, nM: 545
//
compound: Cn1cc(C#Cc2cnc(Nc3ccnc(-c4cnn(S(=O)(=O)C5CC5)c4)n3)cc2N2CCC(NCC(F)(F)F)CC2)cn1
readout.qualifier: =
IC50, nM: 28.7
//
compound: CN(C)C(C)(C)CNC1CCN(c2cc(Nc3ccnc(-c4cnn(S(=O)(=O)C5CC5)c4)n3)ncc2C#Cc2cnn(C)c2)CC1
readout.qualifier: =
IC50, nM: 40.5
//
compound: CC1(CO)CCN(c2cc(Nc3ccnc(-c4cnn(S(=O)(=O)C5CC5)c4)n3)ncc2C#Cc2cnn3c2CNCC3)CC1
readout.qualifier: =
IC50, nM: 1.6
//
compound: Cn1cc(C#Cc2cnc(Nc3ccnc(-c4cnn(S(=O)(=O)C5CC5)c4)n3)cc2N2CCC(O)CC2)cn1
readout.qualifier: =
IC50, nM: 22
//
compound: CC1(CO)CCN(c2cc(Nc3ccnc(-c4cnn(S(=O)(=O)C5CC5)c4)n3)ncc2C#Cc2cnn(CC3CC3)c2)CC1
readout.qualifier: =
IC50, nM: 38.2
//
compound: CC(C)Oc1cc(Nc2ccnc(-c3cnn(S(=O)(=O)C4CC4)c3)n2)ncc1C#Cc1cnn(C)c1
readout.qualifier: =
IC50, nM: 2580
//
compound: CC1(CO)CCN(c2cc(Nc3ccnc(-c4cnn(S(=O)(=O)C5CC5)c4)n3)ncc2C#Cc2cnn(CC(F)F)c2)CC1
readout.qualifier: =
IC50, nM: 14.3
//
compound: Cn1cc(C#Cc2cnc(Nc3ccnc(-c4cnn(S(=O)(=O)C5CC5)c4)n3)cc2N2CCC(NCC(F)F)CC2)cn1
readout.qualifier: =
IC50, nM: 35
//
compound: CN(C)C[C@H]1CC[C@H](COc2cc(Nc3ccnc(-c4cnn(S(=O)(=O)C5CC5)c4)n3)ncc2C#Cc2cnn(C)c2)CC1
readout.qualifier: =
IC50, nM: 15.1
//
compound: O=S(=O)(C1CC1)n1cc(-c2nccc(Nc3cc(N4CCCC(O)C4)c(C#Cc4cnn(C5CCOCC5)c4)cn3)n2)cn1 (centres unmarked)
readout.qualifier: =
IC50, nM: 41.7
//
compound: CC(O)C1CCN(c2cc(Nc3ccnc(-c4cnn(S(=O)(=O)C5CC5)c4)n3)ncc2C#Cc2cnn(C)c2)CC1 (centres unmarked)
readout.qualifier: =
IC50, nM: 31.9

----------
- study.target: EGFR Del19/T790M/C797S (Homo sapiens, UniProt P00533, C797S/DEL746-750/T790M)
- Sequence (P00533 with tags, fused parts or gaps DEL746-750/T790M/C797S): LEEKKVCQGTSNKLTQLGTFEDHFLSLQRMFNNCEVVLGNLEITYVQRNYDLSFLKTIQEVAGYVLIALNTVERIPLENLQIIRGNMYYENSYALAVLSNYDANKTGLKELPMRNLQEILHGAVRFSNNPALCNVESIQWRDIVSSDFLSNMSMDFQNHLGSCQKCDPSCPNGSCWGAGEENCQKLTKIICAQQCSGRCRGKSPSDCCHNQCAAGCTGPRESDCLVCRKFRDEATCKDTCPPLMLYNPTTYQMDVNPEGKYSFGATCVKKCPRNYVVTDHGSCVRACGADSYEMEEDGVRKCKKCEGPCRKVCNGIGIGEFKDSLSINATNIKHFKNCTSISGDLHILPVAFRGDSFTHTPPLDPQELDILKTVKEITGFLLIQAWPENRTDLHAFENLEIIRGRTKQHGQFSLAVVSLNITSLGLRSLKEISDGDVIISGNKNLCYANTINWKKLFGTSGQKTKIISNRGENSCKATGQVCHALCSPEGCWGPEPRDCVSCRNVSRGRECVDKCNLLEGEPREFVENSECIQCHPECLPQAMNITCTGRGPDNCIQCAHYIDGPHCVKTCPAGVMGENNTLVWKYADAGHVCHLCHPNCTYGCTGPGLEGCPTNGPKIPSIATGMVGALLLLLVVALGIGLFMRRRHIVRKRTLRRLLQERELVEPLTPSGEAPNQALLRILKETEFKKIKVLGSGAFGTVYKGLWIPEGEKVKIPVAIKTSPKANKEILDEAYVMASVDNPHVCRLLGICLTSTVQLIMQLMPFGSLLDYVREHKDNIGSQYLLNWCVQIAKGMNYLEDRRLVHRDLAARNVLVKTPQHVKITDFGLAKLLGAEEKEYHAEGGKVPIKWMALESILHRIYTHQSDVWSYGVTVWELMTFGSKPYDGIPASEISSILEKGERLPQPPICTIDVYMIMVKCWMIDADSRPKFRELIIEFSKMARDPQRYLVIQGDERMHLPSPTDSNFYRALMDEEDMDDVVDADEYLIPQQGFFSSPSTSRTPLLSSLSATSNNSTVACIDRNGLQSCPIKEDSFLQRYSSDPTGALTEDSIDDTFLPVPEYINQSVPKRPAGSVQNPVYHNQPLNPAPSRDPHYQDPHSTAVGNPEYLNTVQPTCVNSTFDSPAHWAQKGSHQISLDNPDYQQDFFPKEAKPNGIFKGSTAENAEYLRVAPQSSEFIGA
- protocol.details: Biochemical EGFR kinase inhibition assay (Lance Ultra TR-FRET), triple mutant del19/T790M/C797S
- condition: IC50 Del19/T790M/C797S (nM), 100 μM ATP
// assign class 1 if IC50 falls strictly below 2 nM, else class 0 (ties count as class 0)

compound: O=S(=O)(C1CC1)n1cc(-c2nccc(Nc3cc(NC4CCC(CO)CC4)c(C#CC4CCOC4C(F)(F)F)cn3)n2)cn1 (stereo not drawn)
label: class 0
//
compound: CC1(O)CCN(c2cc(Nc3ccnc(-c4cnn(S(=O)(=O)C5CC5)c4)n3)ncc2C#Cc2ncc(CN3CCOCC3)cn2)CC1
label: class 1
//
compound: Cn1cc(C#Cc2cnc(Nc3ccnc(-c4cnn(S(=O)(=O)C5CC5)c4)n3)cc2N2CCCC(O)CC2)cn1 (stereo not drawn)
label: class 1
//
compound: CN(C)CCn1cc(C#Cc2cnc(Nc3ccnc(-c4cnn(S(=O)(=O)C5CC5)c4)n3)cc2N2CCC(F)(CO)CC2)cn1
label: class 1
//
compound: O=S(=O)(C1CC1)n1cc(-c2nccc(Nc3cc(NC4CCC(CO)CC4)c(C#Cc4cnn(C5CC5(F)F)c4)cn3)n2)cn1 (stereo not drawn)
label: class 0
//
compound: CS(=O)(=O)N1CCC(C#Cc2cnc(Nc3ccnc(-c4cnn(S(=O)(=O)C5CC5)c4)n3)cc2N[C@H]2CC[C@@H](CO)CC2)CC1
label: class 1

----------
# maps each entry to its IC50
- study.target: EGFR Del19/T790M/C797S (Homo sapiens, UniProt P00533, C797S/DEL746-750/T790M)
- protocol.details: Biochemical EGFR kinase inhibition assay (Lance Ultra TR-FRET), triple mutant del19/T790M/C797S
- condition: IC50 Del19/T790M/C797S (nM), 100 μM ATP
readout.kind: IC50 (nM)

compound: CN(C)CC1CCN(c2cc(Nc3ccnc(-c4cnn(S(=O)(=O)C5CC5)c4)n3)ncc2C#Cc2cnn(C3CC3)c2)CC1 [Example 298]
readout.kind: IC50
reading: 0.4

compound: O=S(=O)(C1CC1)n1cc(-c2nccc(Nc3cc(N[C@H]4CC[C@@H](O)CC4)c(C#CC4(O)CCCCC4)cn3)n2)cn1 [Example 174]
readout.kind: IC50
reading: 0.9

compound: CC1(CO)CCN(c2cc(Nc3ccnc(-c4cnn(S(C)(=O)=O)c4)n3)ncc2C#Cc2cnn(C(F)(F)F)c2)CC1 [Example 268]
readout.kind: IC50
reading: 6.2

compound: CCc1cnc(C#Cc2cnc(Nc3ccnc(-c4cnn(S(=O)(=O)C5CC5)c4)n3)cc2N[C@@H]2CCC[C@H](O)C2)s1 [Example 168]
readout.kind: IC50
reading: 11.8

compound: Cn1cc(C#Cc2cnc(Nc3ccnc(-c4cnn(S(=O)(=O)C5CC5)c4)n3)cc2N2CCC(NCCO)CC2)cn1 [Example 131]
readout.kind: IC50
reading: 0.7

compound: Cn1cc(C#Cc2cnc(Nc3ccnc(-c4cnn(S(=O)(=O)C5CC5)c4)n3)cc2N[C@H]2CC[C@@](C)(O)CC2)cn1 [Example 81]
readout.kind: IC50
reading: 0.3

----------
- study.target: EGFR L858R/T790M/C797S (Homo sapiens, UniProt P00533, C797S/L858R/T790M)
- Sequence (P00533 25-1210 T790M/C797S/L858R): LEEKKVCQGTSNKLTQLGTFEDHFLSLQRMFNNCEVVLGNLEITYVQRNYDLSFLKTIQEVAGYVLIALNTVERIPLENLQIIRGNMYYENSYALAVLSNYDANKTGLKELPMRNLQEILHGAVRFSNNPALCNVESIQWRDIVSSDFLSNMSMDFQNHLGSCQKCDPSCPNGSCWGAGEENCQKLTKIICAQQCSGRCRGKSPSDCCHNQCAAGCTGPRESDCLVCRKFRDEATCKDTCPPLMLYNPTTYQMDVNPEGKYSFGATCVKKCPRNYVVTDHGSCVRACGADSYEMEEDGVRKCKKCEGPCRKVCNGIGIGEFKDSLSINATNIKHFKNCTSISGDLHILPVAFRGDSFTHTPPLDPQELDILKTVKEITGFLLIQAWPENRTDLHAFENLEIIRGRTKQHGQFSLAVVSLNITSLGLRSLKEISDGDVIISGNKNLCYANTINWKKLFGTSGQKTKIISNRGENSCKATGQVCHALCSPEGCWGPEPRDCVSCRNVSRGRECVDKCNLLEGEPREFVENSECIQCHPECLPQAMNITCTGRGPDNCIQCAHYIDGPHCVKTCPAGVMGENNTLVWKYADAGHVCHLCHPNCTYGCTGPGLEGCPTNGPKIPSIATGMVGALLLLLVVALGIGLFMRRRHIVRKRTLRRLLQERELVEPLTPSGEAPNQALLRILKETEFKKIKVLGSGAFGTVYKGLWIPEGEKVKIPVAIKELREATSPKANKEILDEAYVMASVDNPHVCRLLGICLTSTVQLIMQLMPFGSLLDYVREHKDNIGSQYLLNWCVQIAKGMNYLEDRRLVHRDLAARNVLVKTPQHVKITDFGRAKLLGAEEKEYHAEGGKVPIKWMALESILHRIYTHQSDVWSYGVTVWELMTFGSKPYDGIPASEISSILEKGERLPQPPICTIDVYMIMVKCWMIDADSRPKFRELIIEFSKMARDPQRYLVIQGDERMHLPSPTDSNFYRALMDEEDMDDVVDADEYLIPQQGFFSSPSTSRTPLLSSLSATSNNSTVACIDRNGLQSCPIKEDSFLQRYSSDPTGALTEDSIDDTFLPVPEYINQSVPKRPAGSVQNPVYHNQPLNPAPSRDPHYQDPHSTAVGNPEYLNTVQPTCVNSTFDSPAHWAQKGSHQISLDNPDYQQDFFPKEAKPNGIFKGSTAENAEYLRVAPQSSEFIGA
- protocol.details: Biochemical EGFR kinase inhibition assay (Lance Ultra TR-FRET), triple mutant L858R/T790M/C797S
- condition: IC50 L858R/T790M/C797S (nM), 100 μM ATP
// assign MET if IC50 falls strictly below 1 nM, else NOT MET (ties count as NOT MET)

compound: CC(C)(O)C1CN(c2cc(Nc3ccnc(-c4cnn(S(=O)(=O)C5CC5)c4)n3)ncc2C#Cc2cnn(CCF)c2)C1
label: NOT MET
--
compound: CN(C)CCCn1cc(C#Cc2cnc(Nc3ccnc(-c4cnn(S(=O)(=O)C5CC5)c4)n3)cc2N[C@H]2CC[C@@H](O)CC2)cn1
label: MET
--
compound: Cn1cc(C#Cc2cnc(Nc3ccnc(-c4cnn(S(=O)(=O)C5CC5)c4)n3)cc2N2CCC(NCCO)CC2)cn1
label: NOT MET
--
compound: CN(C)Cc1cccc(C#Cc2cnc(Nc3ccnc(-c4cnn(S(=O)(=O)C5CC5)c4)n3)cc2N2CCC(C)(CO)CC2)c1
label: MET
--
compound: CC1(O)CCN(c2cc(Nc3ccnc(-c4cnn(S(=O)(=O)C5CC5)c4)n3)ncc2C#Cc2ccc(C(=O)N3CCC(O)CC3)cc2)CC1
label: MET
--
compound: Cn1cc(C#Cc2cnc(Nc3ccnc(-c4cnn(S(=O)(=O)C5CC5)c4)n3)cc2N2CC[C@@H](O)C2)cn1
label: NOT MET
--
compound: O=S(=O)(C1CC1)n1cc(-c2nccc(Nc3cc(N[C@H]4CCC[C@H](O)C4)c(C#Cc4ccc(CN5CCOCC5)cc4)cn3)n2)cn1
label: NOT MET
--
compound: CNCC1(C)CCN(c2cc(Nc3ccnc(-c4cnn(S(=O)(=O)C5CC5)c4)n3)ncc2C#Cc2cnn(C)c2)CC1
label: MET
--
compound: Cn1cc(C#Cc2cnc(Nc3ccnc(-c4cnn(S(=O)(=O)C5CC5)c4)n3)cc2N2CCCC(CO)C2)cn1 (centres unmarked)
label: NOT MET
--
compound: O=S(=O)(C1CC1)n1cc(-c2nccc(Nc3cc(NC[C@H]4CC[C@H](CO)CC4)c(C#CC4CC5CCC4O5)cn3)n2)cn1 (some centres unmarked)
label: NOT MET
--
compound: O=S(=O)(C1CC1)n1cc(-c2nccc(Nc3cc(NC[C@H]4CC[C@H](O)CC4)c(C#CC4CC5CCC4O5)cn3)n2)cn1 (some centres unmarked)
label: NOT MET
--
compound: CC1(CO)CCN(c2cc(Nc3ccnc(-c4cnn(S(=O)(=O)C5CC5)c4)n3)ncc2C#Cc2cnn(CC3CCOCC3)c2)CC1
label: NOT MET
--
compound: C[C@]1(O)CC[C@H](CNc2cc(Nc3ccnc(-c4cnn(S(=O)(=O)C5CC5)c4)n3)ncc2C#Cc2cnn(CCF)c2)CC1
label: NOT MET
--
compound: CN(C)CC1(F)CCN(c2cc(Nc3ccnc(-c4cnn(S(=O)(=O)C5CC5)c4)n3)ncc2C#Cc2cnn(C3CC3)c2)CC1
label: NOT MET
--
compound: Cn1cnc(C#Cc2cnc(Nc3ccnc(-c4cnn(S(=O)(=O)C5CC5)c4)n3)cc2N2CCC(O)CC2)c1
label: NOT MET
--
compound: CC(C)Nc1cc(Nc2ccnc(-c3cnn(S(=O)(=O)C4CC4)c3)n2)ncc1C#CCCCCNC(=O)N1CCOCC1
label: NOT MET
--
compound: CN1CCC(n2cc(C#Cc3cnc(Nc4ccnc(-c5cnn(S(=O)(=O)C6CC6)c5)n4)cc3N3CCC(C)(CO)CC3)cn2)CC1
label: MET
--
compound: O=C(N1CCC(C#Cc2cnc(Nc3ccnc(-c4cnn(S(=O)(=O)C5CC5)c4)n3)cc2NCC2CCC(O)CC2)C1)C(F)(F)F (centres unmarked)
label: NOT MET
--
compound: CN(C)CCC1CCN(c2cc(Nc3ccnc(-c4cnn(S(=O)(=O)C5CC5)c4)n3)ncc2C#CC2CCO[C@H]2C(F)(F)F)CC1 (some centres unmarked)
label: NOT MET
--
compound: O=S(=O)(C1CC1)n1cc(-c2nccc(Nc3cc(N[C@H]4CC[C@@H](O)CC4)c(C#Cc4cnn(C5CCOCC5)c4)cn3)n2)cn1
label: NOT MET
--
compound: CC1(CO)CCN(c2cc(Nc3ccnc(-c4cnn(S(=O)(=O)C5CC5)c4)n3)ncc2C#Cc2cnn(C3CCOCC3)c2)CC1
label: NOT MET
--
compound: CC1OCCC1C#Cc1cnc(Nc2ccnc(-c3cnn(S(=O)(=O)C4CC4)c3)n2)cc1NC1CCC(O)CC1 (centres unmarked)
label: MET
--
compound: CC1(CO)CCN(c2cc(Nc3ccnc(-c4cnn(S(=O)(=O)C5CC5)c4)n3)ncc2C#Cc2cnn(C(F)(F)F)c2)CC1
label: NOT MET
--
compound: CN(C)S(=O)(=O)n1cc(-c2nccc(Nc3cc(N4CCC(C)(CO)CC4)c(C#Cc4cnn(C(F)(F)F)c4)cn3)n2)cn1
label: NOT MET
--
compound: CC1(CO)CCN(c2cc(Nc3ccnc(-c4cnn(S(=O)(=O)C5CC5)c4)n3)ncc2C#CC2CCN(S(C)(=O)=O)CC2)CC1
label: MET
